Molecular target: Recombinant Human FGFR2 alpha (IIIc) Fc Chimera Protein (Homo sapiens)
Construct: Fc (chimera); purchased R&D systems 712-FR-050
Sequence (P21802 with tags, fused parts or gaps limits assumed): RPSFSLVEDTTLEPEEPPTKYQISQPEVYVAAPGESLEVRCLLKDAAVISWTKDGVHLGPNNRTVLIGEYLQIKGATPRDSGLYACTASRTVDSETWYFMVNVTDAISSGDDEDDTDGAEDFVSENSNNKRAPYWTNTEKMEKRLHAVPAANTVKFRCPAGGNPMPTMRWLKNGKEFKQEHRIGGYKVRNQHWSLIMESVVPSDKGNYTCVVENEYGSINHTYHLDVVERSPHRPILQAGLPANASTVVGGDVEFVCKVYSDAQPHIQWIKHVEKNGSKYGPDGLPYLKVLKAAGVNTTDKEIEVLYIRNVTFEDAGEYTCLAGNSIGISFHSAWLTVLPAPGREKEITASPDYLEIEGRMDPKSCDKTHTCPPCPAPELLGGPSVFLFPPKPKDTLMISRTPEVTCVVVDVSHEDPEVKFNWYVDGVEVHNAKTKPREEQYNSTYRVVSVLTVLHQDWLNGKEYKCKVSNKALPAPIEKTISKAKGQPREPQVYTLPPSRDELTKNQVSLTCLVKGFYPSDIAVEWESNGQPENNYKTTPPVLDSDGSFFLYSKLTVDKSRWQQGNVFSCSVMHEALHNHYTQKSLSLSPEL
Assay: ELISA binding affinity of enzymatically synthesized peptide to FGFR
Conditions: ELISA luminescence signal at 10 nmol/L peptide, SEQ ID NO: 47 at 10 nmol/L standardized to 1; enzyme synthesis product
Numbered stars: 1 amine (or outer) side, 2 acyl side, 3 side chain; on linkers, the order of the positions; unused ones are H or OH. Bridge positions count the residues as written; N and C are the ends. Ends that are not written are not given here. acetyl = acetyl (haloacetyl before ring closure) on the side-chain amine, O=C(C[*:1])[*:2]; COCH2 = acetyl group that carries the bridge
reported property: Evaluation result of binding affinity to FGFR

{"columns": ["substance", "observed measurement"],
 "data": [
  ["67 (KCPQNFINPVQWRYFQHYKA; not fully specified; also: cyclic peptide, ring places not shown) [compound 67]", "A (0.7 or more)"],
  ["42 (QCYFLSQYILERYKVHK(COCH2)L; thioether 2-17 via acetyl) [compound 42]", "A (0.7 or more)"],
  ["144 (QCEENYLDPEQYQYFIYFKY; Description of Artificial Sequence: Cyclic peptide) [compound 144]", "A (0.7 or more)"]
]}
